experiment: Cytotoxicity against mouse NIH/3T3 cells assessed as cell viability at 200 to 1000 uM after 24 hrs by MTT assay; format: cell-based, NIH3T3; settings: read-out: Activity
Reported metric: viability at 24 h, up to 1000 µM (%)
Quick reminder: number only, in %, skip the unit.

Query: Return reported viability at 24 h, up to 1000 µM. Input compound: C=CCCCCCCC[C@H]1C(=O)O[C@@H]1CCc1ccccc1 (racemic)
Result: 80

###

biological target: ATP-dependent Clp protease proteolytic subunit (Staphylococcus aureus (strain NCTC 8325), UniProt Q2G036); assay: Inhibition of recombinant Staphylococcus aureus NCTC 8325 peptidase activity of clpP expressed in Escherichia coli BL21 after 10 mins using SLY-AMC as substrate by fluorescence assay
Sequence (Q2G036 whole entry): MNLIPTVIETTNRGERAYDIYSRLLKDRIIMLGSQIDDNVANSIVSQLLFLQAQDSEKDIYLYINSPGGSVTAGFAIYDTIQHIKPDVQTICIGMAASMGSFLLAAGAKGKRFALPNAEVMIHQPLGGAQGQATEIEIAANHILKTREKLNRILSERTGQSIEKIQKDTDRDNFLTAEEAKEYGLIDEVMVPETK
pEC50 reference
Give only the number. pEC50 is defined as minus log10 of concentration in molar units.

The following compounds have reported results that may help.
# Compound, Reported metric, Recorded number
measured = [
    ("C=CCCCCCCC[C@H]1C(=O)O[C@@H]1CCc1cccnc1 (racemic)", "pEC50", 5.35),
    ("C=CCCCCCCC[C@H]1C(=O)O[C@@H]1CCCCCNC(=O)c1ccc(N(C)C)cc1 (racemic)", "pEC50", 5.27),
]

Field: next compound
Query: Return reported pEC50. Input compound: C=CCCCCCCC[C@H]1C(=O)O[C@@H]1CCc1ccccc1 (racemic)
Result: 5.47

Data credit: ChEMBL document CHEMBL1933002
